System: P. falciparum stage V gametocytes
Set-up: BacTiter-Glo ATP luminescence viability of purified stage V gametocytes in 384-well plates, per cent inhibition versus DMSO
DETAILS: 48 h, 5 µM; inhibitor
The campaign covered roughly 13,000 compounds. About 3,200 (25%) showed an effect of 50% or more. The list shows a part of the results.
ASSAY_METRIC: % Inhibition (%)
A number alone suffices; assume %.

Task: # return recorded % Inhibition for input Cc1nn(-c2cccc(Cl)c2)c2c1C(C(=O)c1ccc3c(c1)OCO3)CC(=O)N2 (centres unmarked) [TCMDC-124734]
Result: 53.61

Task: # return recorded % Inhibition for input COc1ccc2nccc([C@@H](O)CN3CCC(NCc4nc5c(C#N)cccc5[nH]4)CC3)c2c1 [TCMDC-141116]
Result: -34.83

Task: # return recorded % Inhibition for input COc1cc(-c2[nH]c(-c3ccc(OCCN(C)C)cc3)cc2-c2ccncc2)ccc1Cl [TCMDC-141225]
Result: -13.45

Task: # return recorded % Inhibition for input COc1cccc2cc(C(=O)N[C@@H](CC(C)C)C(=O)N[C@H](/C=N/NC(=O)c3ccccc3)Cc3cnc[nH]3)oc12 [TCMDC-135820]
Result: 40.86

Task: # return recorded % Inhibition for input COc1ccc(O)c(C(=O)c2cnc3c(c2)c(-c2ccc(F)cc2)c(C#N)c(=O)n3C)c1 [TCMDC-124509]
Result: -11.41

Task: # return recorded % Inhibition for input Cc1cccc(-n2nc(C)c3c2NC(=O)CC3C(=O)c2ccc(Cl)s2)c1 (centres unmarked) [TCMDC-124735]
Result: 9.48

Task: # return recorded % Inhibition for input CC(Nc1ccc2c(c1)CCC2)C(=O)Nc1cc(C(F)(F)F)ccc1N1CCOCC1 (centres unmarked) [TCMDC-124858]
Result: 33.49

Task: # return recorded % Inhibition for input Cc1ccc(-n2nc(C)c3c2NC(=O)CSC3c2ccsc2)cc1 (centres unmarked) [TCMDC-124763]
Result: 18.54

====

Test system: P. falciparum stage V gametocytes
Design: BacTiter-Glo ATP luminescence viability of purified stage V gametocytes in 384-well plates, per cent inhibition versus DMSO
DETAILS: 48 h, 5 µM; inhibitor
Hit rate of the full screen: of about 13,000 compounds, about 3,200 (25%) showed an effect of 50% or more. Some of the results follow.
For each entry below, report its % Inhibition value.
A number alone suffices; assume %.

Task: # return recorded % Inhibition for input `CCCCNC(=O)[C@@H](NC(=O)c1ccc(O)c(-c2ccc(Cl)c(Cl)c2)c1)C(C)C`
Result: 36.3

Task: # return recorded % Inhibition for input `CN1CCN(c2ccnc3cc4ccccc4cc23)CC1`
Result: 1.444

Task: # return recorded % Inhibition for input `O=C(Nc1ccc(Br)c(C(F)(F)F)c1)c1cccc([N+](=O)[O-])c1`
Result: -21.49

Task: # return recorded % Inhibition for input `COc1ccccc1CNC(=O)c1cc(C2CC2)nc2c1cnn2C(C)C`
Result: 49.1

Task: # return recorded % Inhibition for input OCCN1CCN(C2Cc3ccc(F)cc3Sc3ccc(Cl)cc32)CC1 (stereo not drawn)
Result: 11.59

Task: # return recorded % Inhibition for input Cc1cccc2nc(-c3ccc(-c4cccc(NC(=O)C(C)CN5CCN(C)CC5)c4)s3)[nH]c12 (stereo not drawn)
Result: -49.23

Task: # return recorded % Inhibition for input `c1ccc2cc3c(NCCN4CCOCC4)ccnc3cc2c1`
Result: -3.95

Task: # return recorded % Inhibition for input `CCNc1cc(C)nc(Nc2ccc(NC(=O)c3ccccc3Br)cc2)n1`
Result: 22.04

Task: # return recorded % Inhibition for input CC(CN1CCN(C)CC1)C(=O)Nc1cccc(-c2ccc(-c3nc4ccccc4[nH]3)cc2)c1 (stereo not drawn)
Result: 83.04

====

System: P. falciparum stage V gametocytes
Parameters: BacTiter-Glo ATP luminescence viability of purified stage V gametocytes in 384-well plates, per cent inhibition versus DMSO
DETAILS: 48 h, 5 µM; inhibitor
Out of some 13,000 compounds screened, about 3,200 (25%) showed an effect of 50% or more. This is one part of the list.
ASSAY_METRIC: % Inhibition

Task: # return recorded % Inhibition for input Cc1ccc(Nc2nc3cc(Nc4ccnc(Nc5ccc(CS(C)(=O)=O)cc5)n4)ccc3o2)cc1 [TCMDC-141799]
Result: 11.69%

Task: # return recorded % Inhibition for input COc1ccccc1NC(=O)Nc1cccc(-c2ccc(-c3nc4ccc(C(F)(F)F)cc4[nH]3)cc2)c1 [TCMDC-133203]
Result: -14.42%

Task: # return recorded % Inhibition for input COc1ccc(C=NNc2nc(-c3ccccc3)cc(=O)[nH]2)cc1OC [TCMDC-124217]
Result: 8.014%

Task: # return recorded % Inhibition for input COc1ccc2nccc([C@@H](O)CN3CCC(NC(=O)/C=C/c4ccc5cc(C)[nH]c5c4)CC3)c2c1 [TCMDC-141041]
Result: -19.17%

Task: # return recorded % Inhibition for input CCN(CC)c1nc(Nc2cc(C)ccc2C)nc(Nc2ccccc2O)n1 [TCMDC-125766]
Result: -38.82%

Task: # return recorded % Inhibition for input CSc1cccc(NC(=O)c2cc3ccccc3oc2=O)c1 [TCMDC-123616]
Result: 19.07%

Task: # return recorded % Inhibition for input COc1ccc(CCNC(=O)c2ccc(-n3cc(NC(=O)c4cccnc4)cn3)cc2)cc1OC [TCMDC-124665]
Result: 38.46%

Task: # return recorded % Inhibition for input CN(C)CCOc1cc(NC(=O)Nc2ccc(Cl)cc2C(F)(F)F)ccc1I [TCMDC-139125]
Result: -26.77%

Task: # return recorded % Inhibition for input Cc1cccc(CNc2nc(C)cc(NCCC(=O)NCCOc3ccccc3)n2)c1 [TCMDC-134884]
Result: 13.93%

Task: # return recorded % Inhibition for input COc1ccc(CCc2ccc(-c3c(C)[nH]c(C)c(Cl)c3=O)cc2)cc1OC [TCMDC-135789]
Result: 86.31%

Task: # return recorded % Inhibition for input COc1ccc2nccc(NC(=O)C3CCC(NCc4ccc5c(c4)NC(=O)CS5)CC3)c2c1 (stereo not drawn) [TCMDC-141228]
Result: 28.37%

Task: # return recorded % Inhibition for input O=C(NC1CCCc2ccccc21)[C@@H]1CCCN1C(=O)c1ccc(O)c(-c2ccc(Cl)c(Cl)c2)c1 (stereo partly drawn) [TCMDC-140867]
Result: 31.83%

Task: # return recorded % Inhibition for input COc1ccc(C#Cc2ccc(-c3c(C)[nH]c(C)c(Cl)c3=O)cc2)cc1 [TCMDC-135655]
Result: 67.24%

Task: # return recorded % Inhibition for input COc1ccc2nccc(NC(=O)OC3CCC(NCc4ccc5c(n4)NC(=O)CS5)CC3)c2c1 (stereo not drawn) [TCMDC-141555]
Result: -20.26%

Task: # return recorded % Inhibition for input O=C(NCCN1CCOCC1)c1ccc(CNC(=O)c2ccc(O)c(-c3ccc(Cl)c(Cl)c3)c2)cc1 [TCMDC-140852]
Result: 5.208%

Task: # return recorded % Inhibition for input OC(c1ccc(Cl)cc1)(c1ccc(Cl)cc1)C(c1ccc(Cl)cc1)n1ccnc1 (stereo not drawn) [TCMDC-125069]
Result: 44.24%

Task: # return recorded % Inhibition for input CCCN(CCC)S(=O)(=O)c1ccc(C(=O)N2CCC(C(=O)OCC)CC2)cc1 [TCMDC-139301]
Result: 16.88%

Task: # return recorded % Inhibition for input O=C(N[C@@H](CC1CCCCC1)C(=O)NCCN1CCCCC1)c1ccc(O)c(-c2cccc(C(F)(F)F)c2)c1 [TCMDC-140818]
Result: 37.36%

Task: # return recorded % Inhibition for input CSc1nc2nc(C)c(Cc3cccc(F)c3)c(C)n2n1 [TCMDC-123765]
Result: 1.864%

Task: # return recorded % Inhibition for input O=C(NC1CC1)c1ccc(N2CCC(Cc3ccccc3)CC2)nc1 [TCMDC-134591]
Result: 24.62%

Task: # return recorded % Inhibition for input N#Cc1ccc(N2CCN(Cc3ccc(-c4ccc(-c5nc6cc(C(F)(F)F)ccc6[nH]5)cc4)cc3)CC2)nc1.O=C(O)C(F)(F)F [TCMDC-133113]
Result: -14.21%

Task: # return recorded % Inhibition for input O=C1COc2ccc(CNC3CCC(O)(CCc4ccnc5cc6c(cc45)OCCO6)CC3)nc2N1 (stereo not drawn) [TCMDC-141941]
Result: 32.09%

Task: # return recorded % Inhibition for input CCN(CC)CCN(CCN(CC)CC)c1ccc(-c2nc3cc(Cl)c(Cl)cc3[nH]2)cc1 [TCMDC-139329]
Result: 70.38%

Task: # return recorded % Inhibition for input O=C(NC(=O)c1ccccc1O)c1ccccc1O [TCMDC-125868]
Result: 4.896%

Task: # return recorded % Inhibition for input COc1ccc(C=Cc2ccc(-c3c(C)[nH]c(C)c(Cl)c3=O)cc2)cc1OC [TCMDC-135788]
Result: 33.6%

Task: # return recorded % Inhibition for input COc1ccc(CCNCC(O)c2cccc(Br)c2)c(Cl)c1OC (stereo not drawn) [TCMDC-125478]
Result: 12.88%

Task: # return recorded % Inhibition for input CC(=O)Nc1nc(C(=O)Nc2ccc(-c3ccc(-c4nc5ccccc5[nH]4)cc3)cc2)cs1 [TCMDC-137128]
Result: -5.634%

Task: # return recorded % Inhibition for input CC(=O)Nc1ccc(C#Cc2ccc(-c3c(C)[nH]c(C)c(Cl)c3=O)cc2)cc1 [TCMDC-135653]
Result: 34.03%

Task: # return recorded % Inhibition for input O=[N+]([O-])c1cccc(C=NNc2nc(Nc3ccccc3)nc(Nc3ccccc3)n2)c1 [TCMDC-125797]
Result: 40.05%

Task: # return recorded % Inhibition for input Cc1[nH]c(C)c(-c2ccc(OCc3ccc(F)cc3)cc2)c(=O)c1Cl [TCMDC-132415]
Result: 7.51%

Task: # return recorded % Inhibition for input NS(=O)(=O)c1cccc(N=Cc2c(O)[nH]c3ccc(S(=O)(=O)Cc4c(Cl)cccc4Cl)cc23)c1 [TCMDC-135947]
Result: 101.9%

Task: # return recorded % Inhibition for input Cc1ccc(Nc2ccnc3ccc(C(F)(F)F)cc23)cc1O [TCMDC-138307]
Result: -31.91%

Task: # return recorded % Inhibition for input Cc1[nH]c2cc(Cl)ccc2c1C1=CCN(CCCCC2(C)C(=O)Nc3ccccc32)CC1 (stereo not drawn) [TCMDC-140945]
Result: -53%
